The following variants are shown together with reported self-cleavage values.
B1: LINE1-mini (parent)
chain: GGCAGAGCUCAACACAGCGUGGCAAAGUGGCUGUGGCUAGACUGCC

Variants of: B1
Assay: self-cleavage, relative activity (ratio to wild type); higher = more cleavage; in vitro, sequencing; the parent is a self-cleaving ribozyme

Mutation list: C8U G36U
self-cleavage: 0.2
--
Mutation list: G2A U9C
self-cleavage: 0.08
--
Mutation list: U20G U32A
self-cleavage: 0.07
--
Mutation list: U9G C31G
self-cleavage: 0.04
--
Mutation list: C37A G44U
self-cleavage: 0.18
--
Mutation list: C8A U28C
self-cleavage: 0.25
--
Mutation list: A24U A41U
self-cleavage: 0.61
--
Mutation list: G27U U34G
self-cleavage: 0.26
--
Mutation list: C13U U32G
self-cleavage: 0.21
--
Mutation list: A16G A41G
self-cleavage: 0.15
--
Mutation list: C13U G19C
self-cleavage: 0.07
--
Mutation list: G2C G19U
self-cleavage: 0.11
--
Mutation list: C8A C15G
self-cleavage: 0.22
--
Mutation list: G27A U28G
self-cleavage: 0.4
--
Mutation list: A11C C37G
self-cleavage: 0.01
--
Mutation list: C31A G35U
self-cleavage: 0.06
--
Mutation list: G27C G29C
self-cleavage: 0.37
--
Mutation list: C15G A41C
self-cleavage: 0.04
--
Mutation list: A11C A25G
self-cleavage: 0.08
--
Mutation list: G5A C13A
self-cleavage: 0.15
